Reported GHS category values for a set of compounds
- protocol-description: GHS categories as the set defines them, by LD50: 1 up to 5, 2 up to 50, 3 up to 300, 4 up to 2000, 5 above 2000 mg/kg
- recorded-conditions: rat; in vivo; po
Just the number, please.

Examples with answers:
COc1ccc(C2(c3ccc(OC)c(Cl)c3)NC(=O)NC2=O)cc1 (centres undefined); 5
CC/C=C\CCOC(=O)CC; 5
CC(=O)CC(=O)Nc1cc(Cl)c(NC(=O)CC(C)=O)cc1C; 5

Task: # GHS category lookup, item COc1ccc(C2COc3ccccc3O2)cc1O (centres undefined)
Result: 5

Task: # GHS category lookup, item COC(=O)c1nc(Cl)c(Cl)nc1N
Result: 5

Task: # GHS category lookup, item C[C@@H]1CN(c2c(F)c(N)c3c(=O)c(C(=O)O)cn(C4CC4)c3c2F)C[C@H](C)N1 (racemic)
Result: 5

Task: # GHS category lookup, item CCCCCCCOC(C)=O
Result: 5

Task: # GHS category lookup, item CC1=C(C(=O)O)N2C(=O)[C@@H](NC(=O)[C@H](N)c3ccc(O)cc3)[C@H]2SC1
Result: 5
